Source listed as the supplement of paper PMC9112550.

tested on: Escherichia coli TOP10; assay: shrunken log2 fold change of peptide-encoding DNA abundance (4.5 h post-induction vs induction); higher = less antimicrobial activity (less host growth inhibition); conditions: time post-induction: 4.5 h; library: site-saturation at positions 5, 18, 19, 20
Use 0.1 as the dividing line for shrunken log2 fold change, with the line itself on the class 1 side and lower values as class 0.

Recorded results for 5 sequences are shown here.
I'd appreciate it if you could say whether RRIRSRPPRLPRPRPRPKKSPRP has shrunken log2 fold change at least equal to 0.1.
class 0

Now the same for RRIRCRPPRLPRPRPRPQTDPRP
class 0

Now the same for RRIRIRPPRLPRPRPRPRGTPRP
class 1

Now the same for RRIRYRPPRLPRPRPRPNQRPRP
class 0

Now the same for RRIRERPPRLPRPRPRPPPNPRP
class 1

---
I'd appreciate it if you could say whether RRIRLRPPRLPRPRPRPKNRPRP has shrunken log2 fold change at least equal to 0.1.
class 1

Now the same for RRIRPRPPRLPRPRPRPYFPPRP
class 0

Now the same for RRIRVRPPRLPRPRPRPEYMPRP
class 0

Now the same for RRIRFRPPRLPRPRPRPTWDPRP
class 0

---

system: Escherichia coli TOP10; test: shrunken log2 fold change of peptide-encoding DNA abundance (4.5 h post-induction vs induction); higher = less antimicrobial activity (less host growth inhibition); details: time post-induction: 4.5 h; library: site-saturation at positions 5, 18, 19, 20
Use -0.1 as the dividing line for shrunken log2 fold change, with the line itself on the true side and lower values as false.

I'd appreciate it if you could say whether RRIRARPPRLPRPRPRPDHIPRP has shrunken log2 fold change at least equal to -0.1.
false

Now the same for RRIRFRPPRLPRPRPRPCIHPRP
true

Now the same for RRIRWRPPRLPRPRPRPCYLPRP
false

Now the same for RRIRSRPPRLPRPRPRPCYMPRP
false

Now the same for RRIRQRPPRLPRPRPRPSCCPRP
false

Now the same for RRIRYRPPRLPRPRPRPYWQPRP
true

Now the same for RRIRHRPPRLPRPRPRPMQPPRP
true

Now the same for RRIRCRPPRLPRPRPRPSAPPRP
true

Now the same for RRIRSRPPRLPRPRPRPQQSPRP
false

Now the same for RRIRNRPPRLPRPRPRPEPGPRP
true

Now the same for RRIRPRPPRLPRPRPRPSVFPRP
true

Now the same for RRIRCRPPRLPRPRPRPCMPPRP
false

---

system: Escherichia coli TOP10; assay: shrunken log2 fold change of peptide-encoding DNA abundance (4.5 h post-induction vs induction); higher = less antimicrobial activity (less host growth inhibition); settings: time post-induction: 4.5 h; library: site-saturation at positions 5, 18, 19, 20
experimentalReadout: shrunken log2 fold change
I'd appreciate a reply containing only the number, no unit.

Example cases with answers are listed next.
What does the record list as shrunken log2 fold change for RRIRWRPPRLPRPRPRPFHYPRP ?
-2.18

Now the same for RRIRDRPPRLPRPRPRPKHGPRP
0.0517

Now the same for RRIRLRPPRLPRPRPRPSCSPRP
-0.527

Now, please, on to the next sequence.
What does the record list as shrunken log2 fold change for RRIRSRPPRLPRPRPRPIAHPRP ?
-0.0401

---

tested on: Escherichia coli TOP10; assay: shrunken log2 fold change of peptide-encoding DNA abundance (4.5 h post-induction vs induction); higher = less antimicrobial activity (less host growth inhibition); details: time post-induction: 4.5 h; library: site-saturation at positions 5, 18, 19, 20
shrunken log2 fold change for assorted sequences

Request: shrunken log2 fold change, test system Escherichia coli TOP10, entry RRIRKRPPRLPRPRPRPATSPRP
0.288

---
Request: shrunken log2 fold change, test system Escherichia coli TOP10, entry RRIRARPPRLPRPRPRPTDIPRP;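 also: peptides expressed intracellularly from a pBAD plasmid library in pooled LB shake-flask culture, induced with 0.3% L-arabinose, DNA abundance read by NGS, three biological replicates, DESeq2 with apeglm shrinkage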
0.224

Now the same for RRIRCRPPRLPRPRPRPFVSPRP
-0.265
